target under test: CDK2/cyclin A (Homo sapiens, UniProt P24941)
Construct: made in house; host or cells: SF9 cells (recombinant baculovirus, pFASTBAC)
measurement notes: CDK2 Assay (in vitro kinase assay, cyclin A-dependent)
Assay type: biochemical
assay conditions: SPA, biotinylated Histone H1 peptide substrate; read-out: CDK2/cyclin A IC50
Reported IC50 by item:
Give your result in nM as a bare value.

Param readout = IC50; param system = CDK2/cyclin A (Homo sapiens, UniProt P24941); param query = Cn1cc(-c2cnn3c(N)c(C4CC4)c(C4CCCNC4)nc23)cn1 (stereo not drawn) ; response: value 167

Param readout = IC50; param system = CDK2/cyclin A (Homo sapiens, UniProt P24941); param query = Cn1cc(-c2cnn3c(N)c(-c4ccsc4)c(C4CCCNC4)nc23)cn1 (stereo not drawn) ; response: value 2150

Param readout = IC50; param system = CDK2/cyclin A (Homo sapiens, UniProt P24941); param query = CCc1c(C2CCCNC2)nc2c(-c3cnn(C)c3)cnn2c1N (stereo not drawn) ; response: value 334

====

Reported IC50 by item:
target under test: recombinant His-CHK1 (Homo sapiens)
Construct: His-CHK1, In House Lot P976, MW ˜30 KDa, stored at −80° C; fused on or other part: His tag
Sequence (O14757 1-265 limits assumed): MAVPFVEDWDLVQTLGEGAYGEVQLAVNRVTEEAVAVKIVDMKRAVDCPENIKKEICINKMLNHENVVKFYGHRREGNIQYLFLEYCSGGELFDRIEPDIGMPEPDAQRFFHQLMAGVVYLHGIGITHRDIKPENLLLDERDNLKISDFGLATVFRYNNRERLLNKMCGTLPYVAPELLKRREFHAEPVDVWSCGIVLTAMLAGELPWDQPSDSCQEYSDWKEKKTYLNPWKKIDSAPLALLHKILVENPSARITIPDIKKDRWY
measurement notes: CHK1 SPA Assay
Assay type: biochemical
assay conditions: CHK1 IC50 [nM], CDC25C biotinylated peptide substrate, 1 uM ATP

>>> endpoint_value("COC/C=C/c1c(C2CCCNC2)nc2c(-c3cnn(C)c3)cnn2c1N (stereo not drawn)")
"52 nM"
>>> endpoint_value("Cn1cc(-c2cnn3c(N)c(-c4ccsc4)c(C4CCCNC4)nc23)cn1 (stereo not drawn)")
"160 nM"
>>> endpoint_value("CC#Cc1c(C2CCCNC2)nc2c(-c3cnn(C)c3)cnn2c1N (stereo not drawn)")
"44 nM"
>>> endpoint_value("Cn1cc(-c2cnn3c(N)c(C4CC4)c(C4CCCNC4)nc23)cn1 (stereo not drawn)")
"17 nM"
>>> endpoint_value("CCc1c(C2CCCNC2)nc2c(-c3cnn(C)c3)cnn2c1N (stereo not drawn)")
"31 nM"

Lab note: next compound to report on.
Entry Cn1cc(-c2cnn3c(N)c(-c4ccccc4)c(C4CCCNC4)nc23)cn1 (stereo not drawn) : reported IC50 = ? 563 nM

====

target under test: CDK2/cyclin A (Homo sapiens, UniProt P24941)
Construct: made in house; host or cells: SF9 cells (recombinant baculovirus, pFASTBAC)
measurement notes: CDK2 Assay (in vitro kinase assay, cyclin A-dependent)
Type: biochemical
Reported IC50 by item:
Give your result in nM as a bare value.

These solved cases illustrate the format of a correct answer.
>>> endpoint_value("Cn1cc(-c2cnn3c(N)c(-c4cnn(CCO)c4)c(C4CCCNC4)nc23)cn1 (centres unmarked)")
11700
>>> endpoint_value("Cn1cc(-c2cnn3c(N)c(C(=O)Cc4ccccc4)c(C4CCCNC4)nc23)cn1 (centres unmarked)")
103
>>> endpoint_value("CCC(=O)c1c(C2CCCNC2)nc2c(-c3cnn(C)c3)cnn2c1N (centres unmarked)")
38

Entry C=C(C)c1c(C2CCCNC2)nc2c(-c3cnn(C)c3)cnn2c1N (centres unmarked) : reported IC50 = ? 201

Entry CC(=O)c1c(C2CCCNC2)nc2c(-c3cnn(C)c3)cnn2c1N (centres unmarked) : reported IC50 = ? 33
